- SYSTEM_TESTED: T1, sIL-6R (soluble IL-6 receptor; SBH Sciences) (human, UniProt P08887 20-365)
- T1 construct: also called human IL-6R
- T1 sequence: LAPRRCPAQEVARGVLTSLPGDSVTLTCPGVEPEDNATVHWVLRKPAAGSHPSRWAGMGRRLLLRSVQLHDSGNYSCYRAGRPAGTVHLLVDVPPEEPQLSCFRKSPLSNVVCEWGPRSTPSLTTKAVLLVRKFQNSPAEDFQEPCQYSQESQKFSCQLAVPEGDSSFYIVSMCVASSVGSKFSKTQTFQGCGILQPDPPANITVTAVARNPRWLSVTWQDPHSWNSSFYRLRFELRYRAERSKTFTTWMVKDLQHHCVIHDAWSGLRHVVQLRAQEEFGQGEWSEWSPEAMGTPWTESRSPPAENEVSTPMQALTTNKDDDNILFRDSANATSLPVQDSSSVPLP
- TEST_PROTOCOL: SPR (BIAcore 3000), antibody on chip, sIL-6R analyte, 25 C
Each record here notes measured koff.
Just the number please, in s⁻¹, no unit attached.

INSERT INTO assay_data (binder, measured_value) VALUES
  ('56# (antibody, human IgG1, kappa, V domains shown, also called Sample # 56) VH: QVQLQESGPGLVRPSQTLSLTCTVSGYSITSDHAWSWVRQPPGRGLEWIGFISYSGMITYNPSLKSRVTMLRDTSKNQFSLRLSSVTAADTAVYYCARSLARITAMDYWGQGSLVTVSS VL: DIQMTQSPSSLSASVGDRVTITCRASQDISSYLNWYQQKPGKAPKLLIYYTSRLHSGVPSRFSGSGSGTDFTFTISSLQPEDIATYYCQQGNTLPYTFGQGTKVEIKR', '5.59e-05'),
  ('206# (antibody, human IgG1, kappa, V domains shown, also called Sample # 206) VH: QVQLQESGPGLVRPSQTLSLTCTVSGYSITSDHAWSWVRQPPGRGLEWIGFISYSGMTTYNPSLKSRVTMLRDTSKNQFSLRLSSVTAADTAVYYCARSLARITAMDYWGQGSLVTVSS VL: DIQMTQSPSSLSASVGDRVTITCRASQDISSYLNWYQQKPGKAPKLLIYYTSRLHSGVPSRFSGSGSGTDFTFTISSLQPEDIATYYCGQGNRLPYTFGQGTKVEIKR', '1.41e-07');

// switching to the query binder
I am curious: what koff value has been reported for 49# (antibody, human IgG1, kappa, V domains shown, also called Sample # 49) VH: QVQLQESGPGLVRPSQTLSLTCTVSGYSITSDHAWSWVRQPPGRGLEWIGYISYSGITTYNASLKSRVTMLRDTSKNQFSLRLSSVTAADTAVYYCARSLARTTAMDYWGQGSLVTVSS VL: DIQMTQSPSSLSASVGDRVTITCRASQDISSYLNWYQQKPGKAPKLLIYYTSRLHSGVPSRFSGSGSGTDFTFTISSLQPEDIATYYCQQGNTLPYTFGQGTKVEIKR ?
0.000218
